Measure: melting point

molecule=O=[N+]([O-])c1cnc2ccc(-c3ccccc3)cc2c1Cl measure="melting point" result="144 to 145 °C"
molecule=CCn1c(Oc2cccc(N3CCNCC3)c2)nnc1[C@@H](C)NS(=O)(=O)c1ccc(Cl)c(Cl)c1 measure="melting point" result="175 to 178 °C"
molecule=O=S(=O)(CCNc1ccc(Cl)c(C(F)(F)F)c1)NCCCOc1cccc(CN2CCCCC2)c1 measure="melting point" result="115 to 120 °C"
molecule=N#CC(c1ccccc1)(c1ccccc1)n1ccnc1 measure="melting point" result="95 to 98 °C"
molecule=CCOc1ccc(-c2nc(-c3cccc(C(N)=NO)n3)cs2)cc1OCC measure="melting point" result="218 to 220 °C"
molecule="CC1=C(O)C(=O)C(C)(CC2(O)C=CC=CC2)O1 (centres undefined)" measure="melting point" result="122 to 124 °C"
molecule=COc1cc(OC)c(C2=NC(C)(C)CO2)cc1OC measure="melting point" result="84 to 86 °C"
molecule=CCCCCCCCCCCCCCCCCCOc1ccc(C(=O)C(=O)OCC)cc1 measure="melting point" result="46 to 48 °C"
molecule=CN1CCN(c2ccc(-c3cnc4c(c3)N(Cc3c(F)ccc(F)c3Cl)CCN4)cn2)CC1 measure="melting point" result="219 °C"

----------
Measure: melting point

compound=Cc1c(C)c2c(c(C)c1NCc1ccccc1)C(=O)C(C)(C)O2 result="98 to 99 °C"
compound=Cn1nccc1COc1nn2c(-c3ccccc3F)nnc2cc1C1CCC1 result="184 to 186 °C"
compound=CNC(=O)c1cccc(NC(=O)CCc2ccc(OC)cc2)c1 result="151 to 152 °C"
compound="COC1CCN(c2c(F)cc3c(=O)c(C(=O)O)cn4c3c2CCC4C)CC1 (configuration not stated)" result="249 to 251 °C"
compound=COCCCOc1ccc(CCC(=O)O)c(Oc2ncc(C(F)(F)F)cc2Cl)c1 result="99.1 to 99.2 °C"
compound=CCOC(=O)c1ccoc1Cn1c(NC2CCN(C(=O)OCC)CC2)nc2ccccc21 result="162 °C"
compound=CCCCOC(=O)N1CCN(C(=O)c2cc(S(=O)(=O)N(C)C)ccc2N)CC1 result="175 to 177 °C"

----------
Measure: melting point

compound=O=C(O)CCCc1ccc(-c2ccc(F)cc2F)cc1 measure="melting point" result="76 to 77 °C"
compound="Cc1cc(N2N=CCNC2=O)cc(Cl)c1C(C#N)c1cnc(Cl)s1 (centres undefined)" measure="melting point" result="238 to 239 °C"
compound=O=C(NP(=O)(O)CCc1ccccc1)OCc1ccccc1 measure="melting point" result="110 °C"
compound=CN(C)c1nc(N)c(-c2cc(Cl)cc(Cl)c2Cl)c(C(F)(F)F)n1 measure="melting point" result="124 to 126 °C"

----------
compounds and their reported melting point
Measure: melting point

compound="CC1CNC(CC(c2ccccc2)c2ccccc2)=N1 (centres undefined)" result="55 to 57 °C"
compound="O=C(NC(Cc1ccc(OCc2ccccc2)cc1)C(=O)O)c1nc2ccc(-c3ccc(Cl)cc3)cn2c1Cl (centres undefined)" result="242 to 244 °C"
compound=O=C(c1ccccc1)c1c(O)c2cc(Cl)cc(Cl)c2[nH]c1=O result="258 to 259 °C"
compound=CCOc1cc2cc3c(Nc4cc(OC)c(Cl)cc4C)c(C#N)cnc3cc2cc1OCCN1CCOCC1 result="201 to 203 °C"
compound=O=C(O)Cc1ccc(NC(=O)c2ccccc2)cc1 result="207 to 208 °C"
compound=Cc1cc2c(Oc3cccc(C(F)(F)F)c3)nc(OCC(F)(F)F)nc2s1 result="124 to 125 °C"
compound="NC(CC(=O)NC1CC1)C1CC1 (centres undefined)" result="116 to 118 °C"
compound="Oc1c(-c2ccccc2)sc2c(C(O)c3ccccc3)nccc12 (centres undefined)" result="214 to 215 °C"
compound=CCN(C)C(=O)c1cnn(-c2ccc(Cl)cc2)c1-c1ccc(OC)c(OC)c1 result="110 °C"
compound=CC(=O)c1c[nH]cc1-c1cccc(Cl)c1Cl result="192 to 194 °C"
compound=Cc1nc(NC(=O)c2cc[nH]c(=O)c2)sc1C(=O)NCc1ccccc1 result="290 to 292 °C"
compound=c1ccc2c(CN3CCN(c4ccc5c(c4)OCO5)CC3)n[nH]c2c1 result="149 to 150 °C"
compound="O=C1N(Cc2ccc(C(F)(F)F)o2)c2ccccc2C1(O)c1nc2c(cc1O)OCO2 (centres undefined)" result="> 250 °C"
compound="Cn1c(=S)ccn(C2OC(CO)C(O)C2O)c1=O (centres undefined)" result="146 to 148 °C"
compound=COc1ccc(NC(=O)C(=O)c2c3n(c4ccccc24)CCNCC3)cc1 result="177 to 180 °C"
compound=COc1cc(/C=C/c2ccc(C)cc2)cc(OC)c1OC result="125 to 127 °C"
compound="CCOC(=O)C(=CNc1ccc(F)c(F)c1OCC(C)O)C(=O)OCC (centres undefined)" result="52 to 55 °C"
compound=OCc1cc2cc(OCc3ccccc3)c(F)cc2nc1I result="188 °C"
compound=CCOC(=O)C[C@@H](CCCc1ccncc1)C(=O)N[C@H]1Cc2cn(c3ccccc23)CCOCCNC1=O result="203 to 205 °C"
compound=CC(C)c1c(CO)c(-c2ccc(F)cc2)c2n1CCCC2 result="97 to 99 °C"
compound=CCSc1nc(C)n(Cc2ccc(-c3ccccc3C(=O)O)cc2)c1CO result="250 °C"
compound=CC(C)(O)CNCCN(C1CCNCC1)S(=O)(=O)c1ccc(Nc2nccc(Nc3ccc(F)cc3)n2)cc1 result="120 °C"
compound=N#Cc1cc(C(=O)Nc2cncnc2Cl)ccc1Cl result="189 to 190 °C"
compound="CCC(C)c1c(Cl)nc(NC=O)nc1Cl (centres undefined)" result="92 to 93 °C"
compound=Fc1ccc2c(c1)C(=C1SCCCS1)CCO2 result="47 to 49 °C"
compound="COc1ccc(C2CNC(=O)C2)cc1C1CCCC1 (centres undefined)" result="139 °C"
compound="COc1cc(C(=O)NCC2NC(C)Cc3ccccc32)cc(OC)c1OC (centres undefined)" result="162 to 164 °C"
compound=CCc1c(-c2ccc(O)cc2)c2ccc3ccc(CO)c1n32 result="154 to 156 °C"
compound=NC(=O)c1cc2ccccc2cc1N result="234 to 235 °C"
compound=COc1ccc(-c2noc(CC(=O)O)c2-c2ccc(OC)cc2)cc1 result="142 to 143 °C"
compound="O=C(c1ccc([N+](=O)[O-])c(OCC2CO2)c1)N1CCOCC1 (centres undefined)" result="156 to 158 °C"
compound=CC(C)[C@](O)(CCc1ccc(O)cc1)CC(=O)O result="137 to 140 °C"
compound=O=C(CCl)NCC1CCCCC1 result="85 to 86 °C"
compound=O=[N+]([O-])Nc1ccnc(Cl)c1 result="163 to 164 °C"

----------
molecules and their reported melting point
Measure: melting point

molecule=CN(C)S(=O)(=O)c1ccc2c(C=O)c[nH]c2c1 result="250 to 252 °C"
molecule=O=C(N[C@H]1CC[C@H](CCN2CCN(c3nccc4c3CCO4)CC2)CC1)c1ccnc2ccccc12 result="210 °C"
molecule="O=S(Cc1cccs1)c1ncc(Br)cn1 (stereo not given)" result="108 to 109 °C"
molecule=Fc1ccc2c(c1)Cc1sc(NCCCN3CCOCC3)nc1-2 result="113 to 115 °C"
molecule=OCc1ccc2c(Cl)ccnc2c1 result="138 to 139 °C"

----------
compounds and their reported melting point
Measure: melting point

compound=CC1(C)Oc2cc(N)c([N+](=O)[O-])cc2O1 result="128 to 129 °C"
compound=COC(=O)Nc1nc(-c2ccccc2)c(-c2nc3ccccc3c(=O)n2-c2ccc(Cl)cc2)s1 result="> 275 °C"
compound=COCOc1ccc(C(=O)OC)c(O)c1C result="73.8 to 74 °C"
compound=O=C(O)c1ncc2[nH]c3c([N+](=O)[O-])cc([N+](=O)[O-])cc3c2n1 result="269 to 272 °C"
compound="COc1ccc(CNN2C(=O)CC(C)c3cnc(SC)nc32)cc1Cl (stereo not given)" result="118 to 120 °C"
compound="Cc1ccc(C2(C(=O)O)CC2C(=O)O)cc1 (single isomer, unassigned; (-))" result="145 to 148 °C"
compound=Cc1cc(Cn2nnn(-c3cccc(C(F)(F)F)c3)c2=O)ccc1N result="89 to 94 °C"
compound=CCOC(=O)C=Cc1cnc2ccccc2c1 result="86.5 to 88 °C"
compound=COC(=O)Cc1csc2c(OCc3cc(-c4ccc(Cl)cc4)on3)cccc12 result="155 to 156 °C"
compound="CCO[PH](=O)C#Cc1c(C(C)C)c2ccccc2n1-c1ccc(F)cc1 (stereo not given)" result="80 to 82.5 °C"
compound=Clc1cccc(-c2nc(-c3ccccn3)no2)c1 result="136 to 140 °C"
compound=Cn1[nH]c(=O)n(-c2ccc(Cl)cc2F)c1=S result="75 °C"
compound="CS(=O)c1cc(C(C)(C)C)c(O)c(C(C)(C)C)c1 (stereo not given)" result="171 to 173 °C"
compound=CN(C)c1ccc(CN/C=C2\C(=O)NC(=O)c3ccc(I)cc32)cc1O result="198 to 199 °C"
compound="CCN(CC)C(C#N)c1ccc(OCc2ccccc2)cc1 (stereo not given)" result="75 to 76 °C"
compound="COC(=O)CS(=O)C(C)c1ccc(-c2ccccc2)c(F)c1 (stereo not given)" result="161 to 163 °C"
compound=Cc1noc(C)c1C(=O)Nc1ccc(-n2nc(C(F)(F)F)cc2C2CC2)c(F)c1 result="163 to 165 °C"
compound=COc1ccc(CCNc2nc(Cl)ccc2N)cc1OC result="90 to 91 °C"
compound=c1ccc2c(Sc3c4ccccc4cc4ccccc34)c3ccccc3cc2c1 result="257 °C"
compound="CC(C)Cc1ccc(C(C)C(=O)Oc2ccc(C(N)=S)cc2)cc1 (stereo not given)" result="121 to 123 °C"
compound=CC(C)Nc1cc2c(cc1C(=O)c1ccccc1)OCO2 result="77 to 78 °C"
compound=COC(=O)C(=O)c1c(OC)cc(OCCOc2ccc3ccccc3c2)cc1OC result="161 to 162 °C"
compound=COc1cc(CN2CCc3cc(O)c(OC)cc3C2)cc(OC)c1 result="127 to 128 °C"
compound=Cc1ccc(S(=O)(=O)NC[C@H](C)NCc2c(Cl)ccc([N+](=O)[O-])c2Cl)cc1 result="85 to 88 °C"
compound=O=C(Cc1ccc(Cl)cc1Cl)N1CCN(c2cnccn2)CC1 result="124 to 125 °C"
compound=CCCCC[C@H]1CC[C@H](c2nc(Cl)c(OC)c(Cl)n2)CC1 result="29.5 to 30.4 °C"
compound="COc1ccc(C2CCCN2S(=O)(=O)c2ccc(C)cc2)cc1 (racemic)" result="122 °C"
compound="O=S1N=C(NCCCN(Cc2ccsc2)c2ccccn2)C(NCc2ccncc2)=N1 (stereo not given)" result="155 to 157 °C"
compound=O=c1nc(NCc2ccccc2)sc2c([N+](=O)[O-])cc(C(F)(F)F)cc12 result="192 to 194 °C"
compound="CC(=O)OC1CSC(Oc2ccc(Cl)c(-c3cccnc3)c2)C(OC(C)=O)C1OC(C)=O (stereo not given)" result="133 °C"
compound=COc1nc(C)cnc1NS(=O)(=O)c1cccnc1-c1ccc(COCCO)cc1 result="106 to 108 °C"
compound=COc1ccc(C(=O)Nc2nc(-c3ccco3)c(-c3ccncc3)s2)cc1 result="235 to 245 °C"
compound=Cn1cccc(C(=O)Nc2ccc3c(c2)NC(=O)/C3=C\c2ccc[nH]2)c1=O result="> 300 °C"
compound=O=C(NCC1CCN(CC2(C(=O)O)CCCCC2)CC1)N1C(=O)C2(CCCC2)c2ccccc21 result="160 °C"
compound=C=CCc1cc2c(c(CC=C)c1O)CCC(=O)N2CCCN1CCN(c2cccc(Cl)c2)CC1 result="118 °C"
